- Test system: SK-MEL-28 melanoma
- ASSAY_EXPLANATION: NCI tumour cell line growth inhibition, 48 h
MEASURED_ENDPOINT: TGI

Record excerpt, results attached:
[[record]]
compound = "CC(=O)N/N=C1\\NC(=O)C[C@H]2[C@@H]3CC=C4C[C@@H](OC(C)=O)CC[C@]4(C)[C@H]3CC[C@]12C"
observed_result = "33 µM"

[[record]]
compound = "CCN(C(=S)N[C@@H](Cc1ccccc1)C(=O)N[C@@H](CC(C)C)C(=O)OC)c1ccccc1"
observed_result = "> 100 µM"

[[record]]
compound = "COc1ccc(CC(C)C(C)Cc2ccc(OC)c(OC)c2)cc1OC (stereo not given)"
observed_result = "> 1400 µM"

[[record]]
compound = "COc1ccc(CC(O)CN2CCOCC2)cc1 (stereo not given)"
observed_result = "> 100 µM"


Now look at this entry.
Q: Which TGI reading was recorded for the compound "Cc1cc(=O)c2c([nH]1)NS(=O)(=O)NC2=O" ?
Ans: > 100 µM

* * *

- Tested on: IGROV1 ovarian
- ASSAY_EXPLANATION: NCI tumour cell line growth inhibition, 48 h
Where a SMILES comes first, the peptide text is derived from it. The star is where a group is joined. Boc = CC(C)(C)OC(=O)*
I'd be grateful if you could share measured TGI for these entries.

Give TGI for all compounds that follow.
1. CC(C)(C)OC(=O)NCC(=O)NCC(=O)NCC(=O)NCC(=O)O (Boc-GGGG-OH)
2. COc1cc2c(cc1-c1c(C)noc1C)cc(C)c(=O)n2Cc1ccccn1
3. O=c1oc(-c2ccc(O)c(O)c2)cc2cccc(O)c12
4. O=C1C[C@H](Sc2ccccc2)C2(OCCO2)[C@@H](Sc2ccccc2)C1
5. N#C/C(=C\c1cc(Br)c(O)c(Br)c1)c1cccnc1
6. CC(=O)N/N=C1\NC(=O)C[C@H]2[C@@H]3CC=C4C[C@@H](OC(C)=O)CC[C@]4(C)[C@H]3CC[C@]12C
7. Cc1ccccc1Nc1nc2c(s1)C(=O)c1ccccc1C2=O

Ans:
1: > 100 µM; 2: > 100 µM; 3: > 64.7 µM; 4: 3.49 µM; 5: > 100 µM; 6: > 100 µM; 7: 26.4 µM

* * *

- Tested on: SK-OV-3 ovarian
- ASSAY_EXPLANATION: NCI tumour cell line growth inhibition, 48 h
MEASURED_ENDPOINT: TGI

The examples below pair each entry with its known result.
[[record]]
compound = "O=c1ncccn1C1C=C(CO)C(O)C1O (stereo unspecified)"
measured_endpoint = "TGI"
observed_result = "> 50 µM"

[[record]]
compound = "COc1cc2cnc3c4ccccc4ccc3c2cc1OC"
measured_endpoint = "TGI"
observed_result = "> 100 µM"

[[record]]
compound = "CCCCCCCCCCCCCC(=O)OCC1OC(=O)CC1O (stereo unspecified)"
measured_endpoint = "TGI"
observed_result = "> 100 µM"

[[record]]
compound = "COc1ccc(C2(CC(C)O)SCCCS2)cc1 (stereo unspecified)"
measured_endpoint = "TGI"
observed_result = "> 100 µM"

[[record]]
compound = "c1ccc2nc3c(cc4ccccn43)nc2c1"
measured_endpoint = "TGI"
observed_result = "> 100 µM"


Each compound below has a recorded value; state its TGI.
1. COC(=O)c1c2c(cc3c1CC1(C3)Cc3cc4c(c(C(=O)OC)c3C1)CCCC4)CCCC2
2. CNC(=O)c1cc2c(Oc3ccc(NC(=O)C4(C(=O)Nc5ccc(F)cc5)CC4)cc3)ccnc2cc1OC
3. O=c1c2c3c(sc2n2c(-c4cc(-c5ccccc5)nn4-c4ccccc4)nnc2n1Cc1ccccc1)CCCC3
4. O=C1CN2C(c3ccccc3)=NN(c3ccc([N+](=O)[O-])cc3)C2(c2ccccc2)c2cc(Cl)ccc2N1CC1CC1 (stereo unspecified)
5. O=c1c2cc3c(cc2[nH]c2ncccc12)OCO3

Ans:
1. > 100 µM
2. 9.33 µM
3. > 100 µM
4. > 100 µM
5. > 10 µM

Q: Record request: TGI value, item Cc1cn(C2OC(C)(CO)C(O)C2O)c(=O)[nH]c1=O (stereo unspecified)
Ans: > 100 µM

* * *

- System: COLO 205 colon
- ASSAY_EXPLANATION: NCI tumour cell line growth inhibition, 48 h
Where a SMILES comes first, the peptide text is derived from it. The star is where a group is joined. Boc = CC(C)(C)OC(=O)*
MEASURED_ENDPOINT: TGI

Please review the entries below; each comes with its answer.
[[record]]
compound = "CCN(CC)CCNC(=O)c1cn2ncnc(Oc3ccc(NC(=O)Nc4ccc(Cl)c(C(F)(F)F)c4)c(F)c3)c2c1C"
observed_result = "3.16 µM"

[[record]]
compound = "CC(C)(C)OC(=O)NCC(=O)NCC(=O)NCC(=O)NCC(=O)O (Boc-GGGG-OH)"
observed_result = "> 100 µM"

[[record]]
compound = "CNC(=O)c1cc2c(Oc3ccc(NC(=O)C4(C(=O)Nc5ccc(F)cc5)CC4)cc3)ccnc2cc1OC"
observed_result = "9.13 µM"

[[record]]
compound = "CSc1cc(Cl)c(C)cc1S(=O)(=O)NC(=O)NNc1ccc(Cl)cc1"
observed_result = "> 100 µM"

[[record]]
compound = "Cc1cn(C2OC(C)(CO)C(O)C2O)c(=O)[nH]c1=O (stereo not given)"
observed_result = "> 100 µM"


// each compound listed below needs its TGI
1. O=C1C2=C(c3ccccc31)C(c1ccccc1Cl)N1C(=O)CCSC1=N2 (stereo not given)
2. CC(=O)O[C@]12CCCCCC1C1(O)C(O)CCC[C@H]12 (stereo not given in full)
3. CC1(C)OC2COC3(CNO)OC(C)(C)OC3C2O1 (stereo not given)
4. CC(C(=O)n1nnc2ccccc21)N(c1ccccc1)c1ccccc1 (stereo not given)
5. CC12CC(=O)C3C(C(=O)C1)C32C (stereo not given)

Ans:
1: > 100 µM; 2: > 100 µM; 3: > 100 µM; 4: > 100 µM; 5: > 100 µM

* * *

- Tested on: MCF7 breast
- ASSAY_EXPLANATION: NCI tumour cell line growth inhibition, 48 h; in the data active means GI50 below about 0.43 µM; inactive means the rest
Just give me one of these, please: t = active, f = inactive

[[record]]
smiles = "Cn1c2ccccc2c2c(=O)c3ccccc3[nH]c21"
study_system = "MCF7 breast"
category = "f"

[[record]]
smiles = "CCC1=C[C@@H]2CN(C1)Cc1c([nH]c3ccccc13)[C@@](C(=O)OC)(c1cc3c(cc1OC)N(C)[C@H]1[C@@](O)(C(=O)OC)[C@H](OC(C)=O)[C@]4(CC)[C@@H]5C[C@@H]5CN5CC[C@]31[C@@H]54)C2"
study_system = "MCF7 breast"
category = "t"

[[record]]
smiles = "O=c1c2c3c(sc2n2c(-c4cc(-c5ccccc5)nn4-c4ccccc4)nnc2n1Cc1ccccc1)CCCC3"
study_system = "MCF7 breast"
category = "f"


Q: What was the test verdict on "O=S1(=O)NCCCN1CCNc1nccc(-c2c(-c3cccc(O)c3)nc3sccn23)n1" ?
Ans: f

* * *

- System: SF-539 CNS
- ASSAY_EXPLANATION: NCI tumour cell line growth inhibition, 48 h
MEASURED_ENDPOINT: TGI (µM)
One number for each entry, in µM.

Return reported TGI values for all items listed beneath this line.
1. CCCCCCCCCCCCCCCCCCNC(=O)[C@H]1CSC(c2cccs2)N1 (stereo not given in full)
2. COc1cc2c(cc1-c1c(C)noc1C)cc(C)c(=O)n2Cc1ccccn1
3. N=S(c1ccccc1)c1ccccc1[N+](=O)[O-] (stereo not given)
4. Cc1cc2c(Br)cc(Br)c(O)c2nc1C(=O)c1ccccc1
5. CC(C)/C(Cl)=N\OC(=O)Nc1ccc(C#N)cc1
6. CC(=O)OC1COC(n2c(=S)n(-c3ccccc3)c(=O)c3cc(Br)ccc32)C(OC(C)=O)C1OC(C)=O (stereo not given)
7. CO[C@]12CC(=O)C3(C(C[C@H]4CC5CC=C6C[C@@H](OC(C)=O)CC[C@]6(OC(C)=O)C5C[C@@]43C)C1)C1C[C@H]3[C@@H]4CC=C5C[C@@H](OC(C)=O)CC[C@]5(OC(C)=O)[C@H]4CC[C@]3(C)C12 (stereo not given in full)
8. COc1ccc(-c2nnc(N3CCN(C(=O)CN4CCN(c5ccc(OC)cc5)CC4)CC3)nc2-c2ccc(OC)cc2)cc1

Ans:
[7.85, 13.2, 37.8, 97, 29.4, 77.7, 37.2, 33.2]

* * *

Provide the recorded TGI for the entries that follow.
- System: NCI-H23 lung
- ASSAY_EXPLANATION: NCI tumour cell line growth inhibition, 48 h

Answered examples (5):
[[record]]
compound = "C=CCNC(=S)/N=C/c1c(O)c2ccccc2oc1=O"
measured_endpoint = "TGI"
observed_result = "> 100 µM"

[[record]]
compound = "Cc1c2c(n(CCc3ccc(Cl)cc3)c1C)NN=C(C#N)S2(=O)=O"
measured_endpoint = "TGI"
observed_result = "> 100 µM"

[[record]]
compound = "O=c1c(Cl)c(Cl)cnn1CCc1ccncc1"
measured_endpoint = "TGI"
observed_result = "34.1 µM"

[[record]]
compound = "CCCCCCCCCCCCCC(=O)OCC1OC(=O)CC1O (stereo unspecified)"
measured_endpoint = "TGI"
observed_result = "> 100 µM"

[[record]]
compound = "Cc1cc(Nc2nc(SCc3ccc(C(=O)Nc4ccc(F)cc4N)cc3)nn3cccc23)n[nH]1"
measured_endpoint = "TGI"
observed_result = "47.4 µM"


Continue with the compound presented below.
Q: Given "c1ccc2sc(SCSc3nc4ccccc4s3)nc2c1" , state its recorded TGI.
Ans: > 100 µM
